# Tested on: HeLa
# measurement-notes: Cytotoxicity in human HeLa cells assessed as cell death upto 150 uM
# Format: cell-based

- compound: "Cc1cc(C(=O)O)c(C(=O)O)c(O)n1"
  Activity: "Non-toxic"
- compound: "O=C(O)c1cc(C(=O)O)cc(S(=O)(=O)NCCO)c1"
  Activity: "Non-toxic"
- compound: "NC(=O)c1ncn([C@@H]2O[C@H](COP(=O)(O)O)[C@@H](O)[C@H]2O)n1 [RIBAVIRIN MONOPHOSPHATE]"
  Activity: "Non-toxic"
- compound: "O=C(O)CC(Cc1ccc2c(c1)OCO2)C(=O)O (centres undefined)"
  Activity: "Non-toxic"

----------
# system: UniProtKB Q08369
# Sequence (Q08369 whole entry): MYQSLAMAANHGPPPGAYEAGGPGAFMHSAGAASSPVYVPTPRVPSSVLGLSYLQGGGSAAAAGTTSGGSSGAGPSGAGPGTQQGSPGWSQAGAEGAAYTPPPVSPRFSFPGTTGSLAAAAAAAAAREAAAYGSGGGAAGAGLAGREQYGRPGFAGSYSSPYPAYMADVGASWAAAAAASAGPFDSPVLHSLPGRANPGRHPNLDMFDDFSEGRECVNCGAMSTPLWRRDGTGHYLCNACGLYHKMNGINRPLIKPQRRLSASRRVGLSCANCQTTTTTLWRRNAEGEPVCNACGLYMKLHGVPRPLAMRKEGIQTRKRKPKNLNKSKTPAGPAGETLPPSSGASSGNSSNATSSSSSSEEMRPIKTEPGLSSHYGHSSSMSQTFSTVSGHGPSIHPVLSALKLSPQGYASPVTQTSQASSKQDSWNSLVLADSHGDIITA
# measurement-notes: Inhibition of GATA4 in mouse C2C12 cells assessed as myoblast differentiation to myotubes at 100 uM after 48 hrs by immunofluorescence assay in presence of 0.5% FBS relative to control
# Format: cell-based
Activity calls are given as the source filed them. The calls are words filed in the database; no cut-off is given here.
Outcomes: active, inactive

- molecule: "O=C(O)c1cc(C(=O)O)cc(S(=O)(=O)NCCO)c1"
  system: "UniProtKB Q08369"
  label-class: "active"
- molecule: "Cc1cc(C(=O)O)c(C(=O)O)c(O)n1"
  system: "UniProtKB Q08369"
  label-class: "inactive"
- molecule: "NC(=O)c1ncn([C@@H]2O[C@H](COP(=O)(O)O)[C@@H](O)[C@H]2O)n1 [RIBAVIRIN MONOPHOSPHATE]"
  system: "UniProtKB Q08369"
  label-class: "inactive"
- molecule: "O=C(O)CC(Cc1ccc2c(c1)OCO2)C(=O)O (centres undefined)"
  system: "UniProtKB Q08369"
  label-class: "active"
